Target: human NMDA receptor GluN1-GluN2D (Homo sapiens, UniProt O15399+Q05586)
Construct: expressed in transfected cells; host or cells: CHO
Sequence (O15399 28-1336, other chains not shown): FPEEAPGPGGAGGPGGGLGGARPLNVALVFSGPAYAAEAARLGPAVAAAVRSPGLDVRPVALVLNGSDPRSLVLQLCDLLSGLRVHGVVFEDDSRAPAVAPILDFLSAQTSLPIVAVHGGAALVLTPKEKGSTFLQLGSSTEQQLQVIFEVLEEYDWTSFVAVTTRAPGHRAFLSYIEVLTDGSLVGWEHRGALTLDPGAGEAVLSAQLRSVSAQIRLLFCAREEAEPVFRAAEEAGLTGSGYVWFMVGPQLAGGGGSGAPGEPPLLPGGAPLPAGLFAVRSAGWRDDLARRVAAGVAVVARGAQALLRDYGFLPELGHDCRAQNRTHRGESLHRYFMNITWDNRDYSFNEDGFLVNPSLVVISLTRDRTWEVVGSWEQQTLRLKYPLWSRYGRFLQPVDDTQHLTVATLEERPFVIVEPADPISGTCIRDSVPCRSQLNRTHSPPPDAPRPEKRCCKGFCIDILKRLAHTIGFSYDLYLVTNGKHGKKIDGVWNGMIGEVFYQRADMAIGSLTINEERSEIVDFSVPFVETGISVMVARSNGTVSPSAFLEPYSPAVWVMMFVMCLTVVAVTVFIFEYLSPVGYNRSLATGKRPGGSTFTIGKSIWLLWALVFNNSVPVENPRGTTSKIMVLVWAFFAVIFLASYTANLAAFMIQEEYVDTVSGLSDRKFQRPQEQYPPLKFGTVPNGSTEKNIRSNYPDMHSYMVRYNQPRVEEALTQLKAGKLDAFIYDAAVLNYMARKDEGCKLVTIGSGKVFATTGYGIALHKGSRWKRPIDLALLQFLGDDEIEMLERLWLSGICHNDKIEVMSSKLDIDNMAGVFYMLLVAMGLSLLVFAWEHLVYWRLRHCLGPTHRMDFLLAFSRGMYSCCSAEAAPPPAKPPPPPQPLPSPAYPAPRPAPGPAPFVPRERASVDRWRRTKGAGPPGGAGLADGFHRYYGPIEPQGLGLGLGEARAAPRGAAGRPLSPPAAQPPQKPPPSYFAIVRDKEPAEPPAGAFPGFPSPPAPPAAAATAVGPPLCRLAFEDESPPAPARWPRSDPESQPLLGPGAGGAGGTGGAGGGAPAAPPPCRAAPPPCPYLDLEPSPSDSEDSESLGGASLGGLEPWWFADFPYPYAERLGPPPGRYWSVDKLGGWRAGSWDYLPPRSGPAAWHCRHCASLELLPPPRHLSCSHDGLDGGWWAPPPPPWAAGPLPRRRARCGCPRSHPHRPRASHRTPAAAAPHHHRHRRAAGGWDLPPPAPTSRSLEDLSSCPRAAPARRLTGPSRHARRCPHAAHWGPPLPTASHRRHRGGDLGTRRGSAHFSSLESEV
Experiment: FLIPR calcium assay, test item effect on L-glutamate CRC, GluN1-GluN2D-CHO
Assay type: cell-based
Settings: with test item 195 nM
Method: FLIPR determination of intracellular calcium level was used as a read-out for NMDAR activation. 400× compound plate was stored at −20° C. until FLIPR experimental day. 4× compound plate was generated from 400× compound plate by addition of up to 30 μl/well of compound buffer on FLIPR experimental day. A FLIPR system was used to monitor intracellular calcium level in NMDAR cell lines, pre-loaded for 1 hour with Fluo-4, and then washed with assay buffer. […]
Where a name gives a salt, the structure may show the parent alone.
TEST READOUT: L-glutamate CRC HillSlope
Answers are plain numbers.

COc1ccc2c(c1)[C@]13CCCC[C@@H]1[C@H](C2)N(C)CC3 [Dextromethorphan, hydrobromide monohydrate] : 1.4
CCC(=O)C(C[C@H](C)N(C)C)(c1ccccc1)c1ccccc1 : 1.3
CNC1(c2ccccc2Cl)CCCCC1=O (racemic) [(±)-Ketamine, (±)-ketamine hydrochloride] : 1.5

stdin: Tell us which L-glutamate CRC HillSlope value is on record for CC12CC3CC(C)(C1)CC(N)(C3)C2 [Memantine, memantine hydrochloride]
stdout: 1.3
